Below, each of the compounds is paired with its reported Ka value.
target: Acetylcholinesterase (Homo sapiens, UniProt P22303); assay: Binding affinity to human erythrocyte AChE
Sequence (P22303 whole entry): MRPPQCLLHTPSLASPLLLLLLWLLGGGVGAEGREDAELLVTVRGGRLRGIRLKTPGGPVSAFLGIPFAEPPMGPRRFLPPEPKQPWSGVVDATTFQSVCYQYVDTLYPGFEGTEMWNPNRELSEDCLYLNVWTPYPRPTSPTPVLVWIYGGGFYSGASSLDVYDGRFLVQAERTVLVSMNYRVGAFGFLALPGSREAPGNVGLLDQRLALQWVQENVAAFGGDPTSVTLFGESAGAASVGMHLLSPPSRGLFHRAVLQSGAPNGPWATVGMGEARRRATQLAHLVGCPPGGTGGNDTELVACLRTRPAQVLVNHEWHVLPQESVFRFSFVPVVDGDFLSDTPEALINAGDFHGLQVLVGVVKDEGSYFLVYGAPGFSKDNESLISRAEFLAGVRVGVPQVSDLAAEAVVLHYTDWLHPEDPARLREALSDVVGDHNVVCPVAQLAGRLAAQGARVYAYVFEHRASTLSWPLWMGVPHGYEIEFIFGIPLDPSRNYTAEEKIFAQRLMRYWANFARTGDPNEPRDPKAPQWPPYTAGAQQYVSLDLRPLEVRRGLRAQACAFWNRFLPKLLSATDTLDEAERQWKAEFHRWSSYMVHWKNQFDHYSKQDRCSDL
Expressed in ×10³ L/M, but write only the number.

compound=COc1ccc([C@H]2Oc3cc(O)c(C/C=C(\C)CCC=C(C)C)c(O)c3C(=O)[C@@H]2O)cc1O target="Acetylcholinesterase (Homo sapiens, UniProt P22303)" measured_parameter=Ka measurement_unit="×10³ L/M" numeric_readout=2.7
compound=COc1ccc([C@@H]2CC(=O)c3c(cc(O)c(C/C=C(\C)CCC=C(C)C)c3O)O2)cc1O target="Acetylcholinesterase (Homo sapiens, UniProt P22303)" measured_parameter=Ka measurement_unit="×10³ L/M" numeric_readout=0.924
compound="COc1c(O)cc(C2Oc3cc(O)c(C/C=C(\\C)CCC=C(C)C)c(O)c3C(=O)[C@@H]2O)cc1O (some centres undefined)" target="Acetylcholinesterase (Homo sapiens, UniProt P22303)" measured_parameter=Ka measurement_unit="×10³ L/M" numeric_readout=4.54

Now for the compound whose Ka we want.
Noted for "CC(C)=CCC/C(C)=C/Cc1c(O)cc2c(c1O)C(=O)C[C@@H](c1ccc(O)c(O)c1)O2" : its Ka reads 5.49

----------
biological target: Butyrylcholinesterase (Equus caballus)
Sequence (Q9N1N9 whole entry): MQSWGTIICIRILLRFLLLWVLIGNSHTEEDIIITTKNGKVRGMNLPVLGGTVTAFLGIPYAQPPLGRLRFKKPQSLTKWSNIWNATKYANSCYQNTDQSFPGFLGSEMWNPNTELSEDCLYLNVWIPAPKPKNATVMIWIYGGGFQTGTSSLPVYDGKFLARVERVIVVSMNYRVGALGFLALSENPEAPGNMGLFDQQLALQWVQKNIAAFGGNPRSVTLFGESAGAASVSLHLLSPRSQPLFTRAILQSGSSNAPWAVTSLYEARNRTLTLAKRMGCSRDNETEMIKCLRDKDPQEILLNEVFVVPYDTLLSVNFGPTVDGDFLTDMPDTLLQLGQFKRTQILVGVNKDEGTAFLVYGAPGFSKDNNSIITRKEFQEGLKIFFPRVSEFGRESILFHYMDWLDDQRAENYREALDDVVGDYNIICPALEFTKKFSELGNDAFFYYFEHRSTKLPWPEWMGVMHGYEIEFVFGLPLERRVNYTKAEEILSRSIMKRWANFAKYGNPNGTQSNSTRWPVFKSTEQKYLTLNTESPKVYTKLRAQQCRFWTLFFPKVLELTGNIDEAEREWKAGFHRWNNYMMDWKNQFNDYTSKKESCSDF
pKi: −log10 of the molar value.
Tag: 1 if measured pKi is not below 5, 0 if it is.

The examples below pair each entry with its known result.
compound="COc1cc(C2CC(=O)c3c(cc(O)c(C/C=C(\\C)CCC=C(C)C)c3O)O2)cc(OC)c1O (centres undefined)" target="Butyrylcholinesterase (Equus caballus)" class_label=0
compound=COc1cc([C@H]2Oc3cc(O)c(C/C=C(\C)CCC=C(C)C)c(O)c3C(=O)[C@@H]2O)ccc1O target="Butyrylcholinesterase (Equus caballus)" class_label=0
compound="CC(C)=CCC/C(C)=C/Cc1c(O)cc2c(c1O)C(=O)C[C@@H](c1ccc(O)cc1)O2 [BONANNIONE A]" target="Butyrylcholinesterase (Equus caballus)" class_label=0
compound=COc1ccc([C@H]2Oc3cc(O)c(C/C=C(\C)CCC=C(C)C)c(O)c3C(=O)[C@@H]2O)cc1O target="Butyrylcholinesterase (Equus caballus)" class_label=0
compound="COc1c(O)cc(C2Oc3cc(O)c(C/C=C(\\C)CCC=C(C)C)c(O)c3C(=O)[C@@H]2O)cc1O (some centres undefined)" target="Butyrylcholinesterase (Equus caballus)" class_label=1

Ask: Is pKi for CC(C)=CCC/C(C)=C/Cc1c(O)cc2c(c1O)C(=O)C[C@@H](c1ccc(O)c(O)c1)O2 [NYMPHAEOL A] at or above 5?
Reply: 1

Ask: Can "COc1cc([C@@H]2CC(=O)c3c(cc(O)c(C/C=C(\C)CCC=C(C)C)c3O)O2)ccc1O" be said to have pKi at or above 5?
Reply: 0

Ask: Can "COc1ccc([C@@H]2CC(=O)c3c(cc(O)c(C/C=C(\C)CCC=C(C)C)c3O)O2)cc1O" be said to have pKi at or above 5?
Reply: 0

----------
biological target: Acetylcholinesterase (Homo sapiens); assay: Binding affinity to human erythrocyte AChE assessed as fluorescence quenching by microplate reader
MEASURED PARAMETER: KSV
Show the value, then the unit it is measured in.

Solved entries (count: 3):
compound="COc1c(O)cc(C2Oc3cc(O)c(C/C=C(\\C)CCC=C(C)C)c(O)c3C(=O)[C@@H]2O)cc1O (some centres undefined)" result="0.0369 ×10⁵ L/M"
compound=COc1ccc([C@@H]2CC(=O)c3c(cc(O)c(C/C=C(\C)CCC=C(C)C)c3O)O2)cc1O result="0.0103 ×10⁵ L/M"
compound="CC(C)=CCC/C(C)=C/Cc1c(O)cc2c(c1O)C(=O)C[C@@H](c1ccc(O)c(O)c1)O2 [NYMPHAEOL A]" result="0.0577 ×10⁵ L/M"

Here's the next entry for you.
# KSV (compound: "COc1ccc([C@H]2Oc3cc(O)c(C/C=C(\C)CCC=C(C)C)c(O)c3C(=O)[C@@H]2O)cc1O" ) is 0.0285 ×10⁵ L/M
